- target desc: Adrenergic receptor alpha-2 (Rattus norvegicus, UniProt P22086+P19328+P22909)
- method: Inhibition of [3H]clonidine binding to the rat alpha-2-adrenoceptor
measurement kind: Ki (µM)

# example entries with known answers
{"columns": ["compound", "value units", "Ki"],
 "data": [
  ["N#Cc1ccc2c(c1)CNC(C(F)(F)F)C2 (configuration not stated)", "µM", 2900],
  ["FC(F)(F)C1Cc2ccccc2CN1 (configuration not stated)", "µM", 400],
  ["O=[N+]([O-])c1ccc2c(c1)CNC(C(F)(F)F)C2 (configuration not stated)", "µM", 1500]
]}

P = C[C@H]1Cc2sc3ccccc3c2CN1
Q = NS(=O)(=O)c1ccc2c(c1)CN[C@H](C(F)(F)F)C2
R = CS(=O)(=O)c1ccc2c(c1)CNC(C(F)(F)F)C2 (configuration not stated)
Query block: List by increasing Ki. Please reply with the labels ordered as requested. Many thanks.
Result block: Q, P, R
